- experimentalTarget: human C5aR(CD88) (Homo sapiens, UniProt P21730)
- Construct: expressed in transfected cells; host or cells: rat basophilic leukemia cells (RBL)
- protocol: Determination of the IC50 value in an enzyme release assay (functional assay, antagonistic activity)
- Format: cell-based
- conditionInfo: antagonistic activity; IC50 group in enzyme release assay, RBL cells expressing human C5aR(CD88); read-out: activity (group)
pIC50: −log10 of the molar value. Positions of bridges follow the written chain, without caps; N, C: chain ends. Non-standard residues stand in square brackets, D forms with d. Residues, ends and D or L forms follow the SMILES beside them. Phe(3-Cl) = N[C@@H](Cc1cccc(Cl)c1)C(=O)O; Hyp = O=C(O)[C@@H]1C[C@@H](O)CN1; d(hLeu) = CC(C)CC[C@@H](N)C(=O)O; dCha = N[C@H](CC1CCCCC1)C(=O)O; Orn = NCCC[C@H](N)C(=O)O
Reported pIC50 values for a set of molecules

CC(C)CC[C@H]1NC(=O)[C@@H]2C[C@@H](O)CN2C(=O)[C@@H](NC(=O)[C@@H](N)Cc2ccccc2)CCCNC(=O)[C@H](CC(C)C)NC(=O)[C@H](Cc2c[nH]c3ccccc23)NC1=O [Compound 368, H-Phe-[Orn-Hyp-hle-Trp-Leu]] (H-F[Orn][Hyp][d(hLeu)]WL; lactam 2-C) : 7.30 to 7.70
CC(C)CC[C@H]1NC(=O)[C@H](CO)NC(=O)[C@@H](NC(=O)[C@@H](N)Cc2ccccc2)CCCNC(=O)[C@H](CC(C)C)NC(=O)[C@H](Cc2cccc(Cl)c2)NC1=O [Compound 385, H-Phe-[Orn-Ser-hle-Mcf-Leu]] (H-F[Orn]S[d(hLeu)][Phe(3-Cl)]L; lactam 2-C) : 6.70 to 7.30

Please fill in: pIC50 reported for CC(=O)N[C@@H](Cc1ccccc1)C(=O)N[C@H]1CCCNC(=O)[C@H](Cc2ccccc2)NC(=O)[C@H](Cc2c[nH]c3ccccc23)NC(=O)[C@@H](CC2CCCCC2)NC(=O)[C@@H]2CCCN2C1=O [Compound 1, Ac-Phe-[Orn-Pro-cha-Trp-Phe]] (Ac-F[Orn]P[dCha]WF; lactam 2-C) = 7.30 to 7.70

====

Reported IC50 values for a set of compounds
- experimentalTarget: human C5aR(CD88) (Homo sapiens)
- Construct: expressed in transfected cells; host or cells: rat basophilic leukemia cells (RBL)
- Sequence (P21730 1-350): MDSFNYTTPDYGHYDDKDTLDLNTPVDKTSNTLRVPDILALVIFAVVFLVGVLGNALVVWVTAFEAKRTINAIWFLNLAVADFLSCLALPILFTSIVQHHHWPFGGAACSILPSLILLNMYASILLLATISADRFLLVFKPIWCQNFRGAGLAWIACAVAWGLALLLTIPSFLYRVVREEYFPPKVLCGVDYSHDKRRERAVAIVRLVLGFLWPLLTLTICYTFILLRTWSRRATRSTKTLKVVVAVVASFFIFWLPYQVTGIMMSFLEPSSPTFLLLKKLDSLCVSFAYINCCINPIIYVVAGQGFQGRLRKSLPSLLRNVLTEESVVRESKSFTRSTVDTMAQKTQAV
- protocol: Determination of the IC50 value in an enzyme release assay (functional assay, antagonistic activity)
- Format: cell-based
- conditionInfo: antagonistic activity; IC50 group in enzyme release assay, RBL cells expressing human C5aR(CD88); read-out: activity (group)
Positions of bridges follow the written chain, without caps; N, C: chain ends. Non-standard residues stand in square brackets, D forms with d. Residues, ends and D or L forms follow the SMILES beside them. Phe(3-Me) = Cc1cccc(C[C@H](N)C(=O)O)c1; Phe(4-F) = N[C@@H](Cc1ccc(F)cc1)C(=O)O; Bta = N[C@@H](Cc1csc2ccccc12)C(=O)O; Hyp = O=C(O)[C@@H]1C[C@@H](O)CN1; d(hLeu) = CC(C)CC[C@@H](N)C(=O)O; Cha = N[C@@H](CC1CCCCC1)C(=O)O; dCha = N[C@H](CC1CCCCC1)C(=O)O; Orn = NCCC[C@H](N)C(=O)O

CC(=O)N[C@@H](Cc1ccccc1)C(=O)N[C@@H](CCCN)C(=O)N[C@@H](CO)C(=O)N[C@H](CC1CCCCC1)C(=O)N[C@@H](Cc1csc2ccccc12)C(=O)N[C@@H](Cc1ccccc1)C(N)=O [Compound 309, Ac-Phe-Orn-Ser-cha-Bta-Phe-NH2] (Ac-F[Orn]S[dCha][Bta]F-NH2) : 20 to 50 nM
CC(=O)N[C@@H](Cc1ccccc1)C(=O)N[C@@H](CCCN)C(=O)N1CCC[C@H]1C(=O)N[C@H](CCC(C)C)C(=O)N[C@@H](Cc1ccc(F)cc1)C(=O)N[C@@H](CC1CCCCC1)C(N)=O [Compound 298, Ac-Phe-Orn-Pro-hle-Pff-Cha-NH2] (Ac-F[Orn]P[d(hLeu)][Phe(4-F)][Cha]-NH2) : 50 to 200 nM

# next compound below
Please fill in: IC50 reported for CC(=O)N[C@@H](Cc1ccccc1)C(=O)N[C@H]1CCCNC(=O)[C@H](Cc2ccccc2)NC(=O)[C@H](Cc2c[nH]c3ccccc23)NC(=O)[C@H](Cc2cccc(C)c2)NC(=O)[C@@H]2C[C@@H](O)CN2C1=O [Compound 183, Ac-Phe-[Orn-Hyp-Mmf-Trp-Phe]] (Ac-F[Orn][Hyp][Phe(3-Me)]WF; lactam 2-C) = 50 to 200 nM
